Assay Overview: Human HepG2 cell viability assay in 384 well format
Format: toxicity, cell-based
Set-up: dose 125 nL, time 70.5 hour; concentration not given beside the values
Assay Setup: HepG2 cells, read-out: Inhibition
Measure: cytotoxicity at 70.5 h (%)

Compound | Measure | Measure Unit | Number
COc1cc(C(C)=O)ccc1OCC(=O)c1cccn1C | cytotoxicity at 70.5 h | % | 32.2
COCC1CN(c2ccc(Cl)cc2C#N)CCO1 (configuration not stated) | cytotoxicity at 70.5 h | % | -7.05
CC(=O)Nc1ncc(S(=O)(=O)Nc2ccc(C)cc2)s1 | cytotoxicity at 70.5 h | % | -1.08
O=C(CN1CC(c2nc(Cc3ccccc3)no2)C1)NCC1CCCO1 (configuration not stated) | cytotoxicity at 70.5 h | % | -0.885
O=C(NCCO)Nc1ccc(Br)c(F)c1 | cytotoxicity at 70.5 h | % | -0.649
CN1CC(=O)N(c2ccsc2)CC12CCN(S(C)(=O)=O)C2 (configuration not stated) | cytotoxicity at 70.5 h | % | 1.05
CCNC(=O)[C@@H]1C[C@@H](n2cc(CN(CC)CC)nn2)CN1 | cytotoxicity at 70.5 h | % | -13.5
Cc1ccc(C(=O)NCCNC(=O)c2cncnc2C)cc1F | cytotoxicity at 70.5 h | % | -11.3
CC(=O)N1CC2(CCN(Cc3ccc(Cl)cc3)C2)Cc2ccccc21 (configuration not stated) | cytotoxicity at 70.5 h | % | 5.14
Cc1ccccc1OCC(O)C(=O)N1CCC2(CC1)CN(C)C(=O)O2 (configuration not stated) | cytotoxicity at 70.5 h | % | -4.24
Cc1ccc2c(c1)OC(C)CN2C(=O)Cc1ccc(C)nc1 (configuration not stated) | cytotoxicity at 70.5 h | % | -0.93
COCCN1CCC(CNC(=O)C2(S(C)(=O)=O)CCCC2)CC1 | cytotoxicity at 70.5 h | % | -3.79

The values you see were collected from ChEMBL document CHEMBL3507680.
